# ASSAY: yeast display, Sf9 membrane polyspecificity reagent, FACS + sequencing; frameworks hold sequencing errors
VALUE_TYPE: polyreactivity (PSR sort gate)

INSERT INTO results (sequence_text, result) VALUES
  ('QVQLVESGGGLVQAGGSLRLICAASGRTFNGYAMGWYRQAPGKERELVAAINASGGRTYYADSVKGRFTISRDNAKNTVYLQMNSLKPEDTAVYYCNARRYHWSVYYYDYWGQGTQVTVSS', 'high polyreactivity'),
  ('QVQLVESGGGLVQAGGSLRLSCAASGFTYRTNAMGWYRQAPGKERELVAAISTGARTYYADSVKGRFTISRDNAKNTVYLQMNSLKPEDTAVYYCNKVLRRFLSRYDYWGQGTQVTVSS', 'high polyreactivity'),
  ('QVQRVESGGGLVQAGGSLRLTCAASGFTFVYYPMGWYRQAPGKVREWVAVISYSGTNTRYADSVKRRFTISRDNAKITVYLQMNSLKPEDTAVYYCAAEIYYVSWYDYWGQGTQVTVSS', 'high polyreactivity'),
  ('QVQLVESGGGLVQAGGSLRLSCAASGSTLALYTMGWYIQAPGKERELVAAISKNGGRTYYADSVKGRFRISRDNAMNTVYLQMNSLKPEDTAVYYCAAASGSYRGYDYWGQCTQVTVSS', 'high polyreactivity'),
  ('QVQLEESAGGLVQAGGSLRLSCAASGRIFVRNAMGWYRQAPGKERELVADITNGGSTNYADSVKGRFTISRDNAKNTVYLQMNSLKPEDTAVYYCAATYPYSWVYSGYYYWGHGTQVTVSS', 'low polyreactivity');

Okay, here is my list. What is polyreactivity (PSR sort gate) for each of these?
1. QVQLVESGGGLVQARGSLRLSCAASGSIFIRNAMGWYRQAPGKERELVAAISTIGGRTYYADSVKGRFTISRDNAKNTVYLQMNSLKPEDTAVYYCAAEQGTPSTNWYDYWGQGTQVTVSS
2. QVQLVESGGGLVQAGGSLRLSCAASGSLFRYYAMGWYRQAPGTERELVAAITGRGGSTYYADSVKGRFTISRDNAKNTVYLQMNSLKPEDTAVYYCADYIDANVHRFDYWGQGTQVTVSS
3. QVQLVESGGGLVQAGGSLRLSCAASGSIFYDNDMGWYRQAPGNERELVAAISWSASDTYYADSVKGRFTISRDNAKNTVYLQMNSLKPDDTAVYYCNAEVYEWYVVYSALDYWGQGTQVTVSS

RESULT:
["low polyreactivity", "low polyreactivity", "low polyreactivity"]

Respectfully, I request polyreactivity (PSR sort gate) for each entry included below.
1. QVQLVESGGGLVQAGGSLRLSCAASGSIFSTYAMGWYRQAPGTERELVAAITWSGGSTYYADSVKGRFTISRDNAKNTVYFQMNSLKPEDTAVYYCATRGQGWGGKYGYWGQGTQVTVSS
2. QVQLVESGGGLVQAGGSLRLSCAASGSTFAYNAMGWYRQAPGKERELVAAISYGGDDTYYADSVKGRFTISRDNAKNTVYLQMNSLKPEDTAVYYCNARSRTYRSALGNLYHYDYWGQGTQVTVSS
3. QVQLVESGGGLVQAGGSLRLTCAASGGIFYKYAKGWYRQAPGKEMELVAAITGRGGSTNYADSVKVRFTISRDNAKNTVYLQMNSLKPEDTAVYYCAARYTPTWSYGYWGQGTQVTVSS

RESULT:
1. low polyreactivity
2. high polyreactivity
3. low polyreactivity

Reference for the values: the nanobody polyreactivity screen of Harvey et al. (2022)
